Listing of recorded Ki by entry.
- ASSAYED_SYSTEM: Caspase-1 (Homo sapiens)
- Sequence (P29466 whole entry): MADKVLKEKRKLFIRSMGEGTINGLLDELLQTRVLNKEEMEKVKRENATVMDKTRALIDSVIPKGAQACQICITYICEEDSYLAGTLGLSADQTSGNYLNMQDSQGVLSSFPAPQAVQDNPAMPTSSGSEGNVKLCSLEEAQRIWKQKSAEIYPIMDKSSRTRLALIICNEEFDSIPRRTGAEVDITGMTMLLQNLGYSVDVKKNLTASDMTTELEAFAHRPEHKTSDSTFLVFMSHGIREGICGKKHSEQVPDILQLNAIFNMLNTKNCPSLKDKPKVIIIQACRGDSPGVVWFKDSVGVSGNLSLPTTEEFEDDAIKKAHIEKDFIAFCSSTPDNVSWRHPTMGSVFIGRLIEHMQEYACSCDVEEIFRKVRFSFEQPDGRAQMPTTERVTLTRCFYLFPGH
Record the result as a number with its unit.

Below are worked cases with known answers.
>  <MOLECULE>
CCC(C)c1ccc(Oc2ccccc2S(=O)(=O)N[C@H](C=O)CC(=O)O)cc1 (some centres not stated)

>  <Ki>
490 nM

$$$$
>  <MOLECULE>
CCC(CC)c1ccc(Oc2ccccc2S(=O)(=O)N[C@H](C=O)CC(=O)O)cc1

>  <Ki>
440 nM

$$$$
>  <MOLECULE>
CC(C)c1ccc(Oc2ccccc2S(=O)(=O)N[C@H](C=O)CC(=O)O)cc1

>  <Ki>
620 nM

$$$$
>  <MOLECULE>
CCC(C)c1ccc(Oc2ccccc2S(=O)(=O)N[C@H](C=O)CC(=O)O)cc1C (some centres not stated)

>  <Ki>
100 nM

$$$$
>  <MOLECULE>
O=C[C@H](CC(=O)O)NS(=O)(=O)c1ccccc1Oc1ccc(C2CCCC2)cc1

>  <Ki>
880 nM

$$$$
>  <MOLECULE>
Cc1cccc(Oc2ccccc2S(=O)(=O)N[C@H](C=O)CC(=O)O)c1C

>  <Ki>
1000 nM

$$$$

According to the records, this molecule Cc1cc(Oc2ccccc2S(=O)(=O)N[C@H](C=O)CC(=O)O)cc(C)c1C displays Ki of 450 nM
